These entries and their values trace back to PubChem BioAssay (NCI).

test system: UO-31 renal; assay: NCI tumour cell line growth inhibition, 48 h
Let's look at some compounds and their measured GI50.

Data request: Which GI50 is listed for CCS/C(Nc1ccccc1)=C(\C#N)C(=O)Nc1ccc(OC)cc1 ?
Data returned: 5490 nM

Data request: Another compound to look at: O=Nc1c(O)ccc2ccccc12
Data returned: 1100 nM

Now let's try a different one.
Data request: Which GI50 is listed for COc1ccc2c3c(c(OCCCN(C)C)nc2c1)-c1ccc(Cl)cc1C3=O ?
Data returned: 1510 nM

---

tested on: RPMI-8226 leukemia; assay: NCI tumour cell line growth inhibition, 48 h; in the data active = GI50 below about 0.43 µM; inactive = the rest
Permitted responses: active, inactive

Data request: Each compound tested received a call. Report the one for O=C(CCN1CCCC1)Nc1ccc2c(NCCCc3ccccc3)c3ccccc3nc2c1 .
Data returned: inactive

Data request: Another compound to look at: C=C(C)[C@H]1CC/C(C)=C/CCC(C)C(=O)CC/C(CO)=C\[C@@H]1O (stereo not given in full)
Data returned: inactive

Data request: Another compound to look at: COC(=O)CCC1=C(C)c2cc3[n-]c(cc4nc(cc5[n-]c(cc1n2)c(CCC(=O)OC)c5C)C=C4C)cc3C.[Cd+2]
Data returned: inactive

Data request: Another compound to look at: Oc1c(CN2CCCC2)cc(COCc2ccccc2)c2cccnc12
Data returned: inactive

Data request: Another compound to look at: NC(CSC(c1ccccc1)(c1ccccc1)c1ccc2ccccc2c1)C(=O)O (stereo not given)
Data returned: active

---

tested on: XF 498 CNS; test: NCI tumour cell line growth inhibition, 48 h
RECORDED ENDPOINT: TGI

Worked examples follow.
Data request: Look up TGI with XF 498 CNS for this molecule: COC(=O)C1=C(C(=O)OC)C2(C(=O)OC)OC1(OC)C(C1(C(=O)OC)C(C(=O)OC)=C1C(=O)OC)=C2C(=O)OC (configuration not stated)
Data returned: > 100 µM

Data request: Another molecule to look at: Fc1ccccc1C1CC(C(c2ccccc2)c2ccccc2)=Nc2ccccc2S1 (configuration not stated)
Data returned: 27.1 µM

Data request: Another molecule to look at: O=c1c([Se]c2coc3ccccc3c2=O)coc2ccccc12
Data returned: 30.5 µM

Data request: Another molecule to look at: CCc1cccc(C)c1NC(=O)NS(=O)(=O)c1ccc(C)cc1
Data returned: > 100 µM

Data request: Another molecule to look at: COc1ccc2c(c1)CC[C@@H]1C2CC[C@]2(C)C(=O)NC(=O)CC12 (some centres not stated)
Data returned: > 100 µM

***
Data request: Look up TGI with XF 498 CNS for this molecule: C=C1C(=O)OC2/C=C(\C)C(O)/C=C\C(C)(O)CC(OC(=O)/C(C)=C/C)C12 (configuration not stated)
Data returned: > 58.4 µM

Data request: Another molecule to look at: COc1cc([C@H]2Oc3c(c(O)cc4oc(-c5ccccc5)cc(=O)c34)O[C@@H]2CO)ccc1O
Data returned: > 100 µM

Data request: Another molecule to look at: O=C1c2cc(CCl)sc2C(=O)c2ccsc21
Data returned: 3.1 µM

Data request: Another molecule to look at: Cc1ccc(NC(=O)C(=O)Cc2nc3ccccc3o2)c(C)c1
Data returned: > 100 µM

Data request: Another molecule to look at: CN1OC(=O)N(C)C1c1ccccc1 (configuration not stated)
Data returned: > 100 µM

Data request: Another molecule to look at: CCC1(OC(C)=O)C(=O)OCc2c1cc1n(c2=O)Cc2cc3ccccc3nc2-1 (configuration not stated)
Data returned: > 100 µM

Data request: Another molecule to look at: C[Si](C)(C)/C=C/CN1C(=O)CCC1O (configuration not stated)
Data returned: > 100 µM
